The values you see were collected from paper PMC7983888.

Assay Notes: Plasma glasdegib pharmacokinetics after single oral doses
Assay type: in vivo, human
Experimental Context: human, plasma, po, 150 mg

{"Smiles Code": "CN1CC[C@@H](NC(=O)Nc2ccc(C#N)cc2)C[C@@H]1c1nc2ccccc2[nH]1", "Cmax": "1120 ng/mL"}

* * *

Assay Notes: Plasma glasdegib pharmacokinetics after single oral doses
Assay type: in vivo, human
Experimental Context: human, plasma, po, 300 mg
Observable: Cmax (µg/mL)

{"Compound": "CN1CC[C@@H](NC(=O)Nc2ccc(C#N)cc2)C[C@@H]1c1nc2ccccc2[nH]1 [Glasdegib]", "Value": 2.3}
